# Read-out: Broad substrate specificity ATP-binding cassette transporter ABCG2 (Homo sapiens)
# test-description: CLD_ABCG2_48hr: CellzDirect (CLD) Gene Expression Assay for ABC Transporter (ABCG2) at 48 hours (AID 2283704)
Results filed as inconclusive are left out. Calls of active or inactive are those of the source. The calls were made as follows: active = hit-call score of the fitted dose curve at least 0.9, where 1 is the maximum; inconclusive = response in the unintended direction; inactive = score below 0.9.
Tick one outcome: active, inactive

Exercise: Outcome? CCc1cnc(C2=NC(C)(C(C)C)C(=O)N2)c(C(=O)O)c1 (configuration not stated)
Solution: inactive

Exercise: Outcome? COP(=O)(OC)C(O)C(Cl)(Cl)Cl (configuration not stated)
Solution: inactive

Exercise: Outcome? CCCOCC(=Nc1ccc(Cl)cc1C(F)(F)F)n1ccnc1
Solution: active

Exercise: Outcome? CC(Oc1cccc(Cl)c1)C(=O)O (configuration not stated)
Solution: inactive

Exercise: Outcome? CC(COc1ccc(Oc2ccccc2)cc1)Oc1ccccn1 (configuration not stated)
Solution: inactive

Exercise: Outcome? Cc1ccn2nc(S(=O)(=O)Nc3c(F)cccc3F)nc2n1
Solution: inactive

Exercise: Outcome? CCOP(=S)(Oc1cnc(C(C)(C)C)nc1)OC(C)C (configuration not stated)
Solution: inactive

Exercise: Outcome? CCCOc1nn(C(=O)NS(=O)(=O)c2ccccc2C(=O)OC)c(=O)n1C
Solution: inactive

Exercise: Outcome? O=c1ccc(=O)[nH][nH]1
Solution: inactive

Exercise: Outcome? CN1COCN(Cc2cnc(Cl)s2)C1=N[N+](=O)[O-]
Solution: inactive

Exercise: Outcome? C=C(C)[C@H]1Cc2c(ccc3c2O[C@@H]2COc4cc(OC)c(OC)cc4[C@@H]2C3=O)O1
Solution: active

Exercise: Outcome? CCOP(=O)(OCC)Oc1cc(C)nc(C(C)C)n1
Solution: inactive

Exercise: Outcome? CNC(=O)ON=C(SC)C(=O)N(C)C
Solution: inactive

Exercise: Outcome? CC[C@H](C)[C@H]1O[C@]2(C=C[C@@H]1C)C[C@@H]1C[C@@H](C/C=C(\C)[C@@H](O[C@H]3C[C@H](OC)[C@@H](O[C@H]4C[C@H](OC)[C@@H](NC)[C@H](C)O4)[C@H](C)O3)[C@@H](C)/C=C/C=C3\CO[C@@H]4[C@H](O)C(C)=C[C@@H](C(=O)O1)[C@]34O)O2
Solution: inactive

Exercise: Outcome? CCCCOC(=O)[C@@H](C)Oc1ccc(Oc2ccc(C#N)cc2F)cc1
Solution: inactive

Exercise: Outcome? CCOP(=S)(OCC)OC(Cl)C(Cl)(Cl)Cl (configuration not stated)
Solution: inactive

Exercise: Outcome? COc1ccc(C(=CC(=O)N2CCOCC2)c2ccc(Cl)cc2)cc1OC
Solution: active

Exercise: Outcome? CN(C)C(=O)Nc1cccc(C(F)(F)F)c1
Solution: inactive

Exercise: Outcome? CCCCOC(=O)c1ccccc1C(=O)O
Solution: inactive

Exercise: Outcome? CC1=NNC(=O)N(/N=C/c2cccnc2)C1
Solution: inactive

Exercise: Outcome? COc1cc(OC)nc(Sc2cccc(Cl)c2C(=O)O)n1
Solution: inactive

Exercise: Outcome? CCc1cccc(C)c1N(C(=O)CCl)C(C)COC (configuration not stated)
Solution: inactive

Exercise: Outcome? CC1(C(=O)Nc2ccc(O)c(Cl)c2Cl)CCCCC1
Solution: inactive

Exercise: Outcome? CCOP(=O)(SC(C)CC)N1CCSC1=O (configuration not stated)
Solution: inactive

Exercise: Outcome? C#CCC1=C(C)C(OC(=O)C2C(C=C(C)C)C2(C)C)CC1=O (configuration not stated)
Solution: inactive

Exercise: Outcome? CON=C(C(=O)OC)c1ccccc1CON=C(C)c1cccc(C(F)(F)F)c1
Solution: inactive

Exercise: Outcome? CCOP(=S)(OCC)Oc1ccc2c(C)c(Cl)c(=O)oc2c1
Solution: inactive
